experiment: Acute toxicity (LD50), i.v. via tail vein, one-week observation; details: both sexes, mouse, in vivo, iv, Kunming mice, YC-6 injection of Example 3 (20 mg/ml)
readout: LD50 at 1 week

[Q] Entry C[C@@]12CCC[C@H]1[C@@H]1C[C@@H](O)[C@@]3(O)C[C@@H](O)CC[C@]3(C)[C@H]1CC2 [YC-6, 5α-androstane-3β,5,6β-triol] has what LD50 at 1 week?
[A] > 400 mg/kg

Hey, just so you know, these numbers are from patent US9265837B1.
